Here's a batch of compounds along with measured IC50 for UniProt:Q9BY41.
Sequence (Q9BY41 whole entry): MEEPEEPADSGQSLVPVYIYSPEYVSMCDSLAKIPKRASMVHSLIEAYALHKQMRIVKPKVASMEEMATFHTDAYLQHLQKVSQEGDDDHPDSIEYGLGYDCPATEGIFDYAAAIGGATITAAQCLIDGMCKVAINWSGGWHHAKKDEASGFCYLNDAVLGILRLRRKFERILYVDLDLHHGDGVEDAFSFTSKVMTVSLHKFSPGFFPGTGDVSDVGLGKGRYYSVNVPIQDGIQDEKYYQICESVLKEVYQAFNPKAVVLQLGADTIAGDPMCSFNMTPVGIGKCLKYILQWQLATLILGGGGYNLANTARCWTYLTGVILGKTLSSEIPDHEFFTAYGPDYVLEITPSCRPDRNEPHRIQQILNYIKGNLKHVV

Example entries begin here.
COC(=O)CCCCN1C(=O)[C@H](CCSC)N=C(c2ccccc2)c2ccccc21 = > 30 µM
CC(C)(C)SC[C@H]1N=C(c2ccccc2)c2ccccc2NC1=O = > 30 µM
C[C@@H](O)[C@@H]1N=C(c2ccccc2)c2ccccc2N(CCCCC(=O)NO)C1=O = > 30 µM

Okay, now this compound:
Sample O=C(O)CC[C@H]1N=C(c2ccccc2)c2ccccc2NC1=O — what was its IC50?
> 30 µM

* * *

# target-of-assay: Histone deacetylase 1 (Homo sapiens)
# Sequence (Q13547 whole entry): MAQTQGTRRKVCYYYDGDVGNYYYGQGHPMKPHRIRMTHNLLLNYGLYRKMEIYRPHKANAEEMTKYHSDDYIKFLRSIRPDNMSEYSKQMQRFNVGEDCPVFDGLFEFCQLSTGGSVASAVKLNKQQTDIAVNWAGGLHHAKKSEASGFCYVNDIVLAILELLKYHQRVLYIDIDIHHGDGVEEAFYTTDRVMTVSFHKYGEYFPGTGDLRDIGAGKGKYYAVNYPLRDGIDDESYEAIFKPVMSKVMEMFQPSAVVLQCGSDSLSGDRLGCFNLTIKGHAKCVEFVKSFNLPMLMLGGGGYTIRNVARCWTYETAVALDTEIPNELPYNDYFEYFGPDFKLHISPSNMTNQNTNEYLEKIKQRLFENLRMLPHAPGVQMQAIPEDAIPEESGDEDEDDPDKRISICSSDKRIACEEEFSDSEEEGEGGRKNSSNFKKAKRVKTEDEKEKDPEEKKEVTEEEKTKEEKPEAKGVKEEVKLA
pIC50: −log10 of the molar value.
quantity-measured: pIC50

Example results:
C[C@@H](OCc1ccccc1)[C@@H]1N=C(c2ccccc2)c2ccccc2N(CCCCC(=O)NO)C1=O = 5.34
O=C(CCCCN1C(=O)[C@H](Cc2ccccc2)N=C(c2ccccc2)c2ccccc21)NO = 5.07
O=C(O)CCCCN1C(=O)[C@H](Cc2cncn2C(c2ccccc2)(c2ccccc2)c2ccccc2)N=C(c2ccccc2)c2ccccc21 = < 4.52

GET /values?readout=pIC50&item= COC(=O)CCCCN1C(=O)[C@H](CC(=O)NC(c2ccccc2)(c2ccccc2)c2ccccc2)N=C(c2ccccc2)c2ccccc21
< 4.52

Same question, COC(=O)CCCCN1C(=O)[C@H](CCC(=O)OC(C)(C)C)N=C(c2ccccc2)c2ccccc21 this time
< 4.52

Same for C[C@H](OCc1ccccc1)[C@@H]1N=C(c2ccccc2)c2ccccc2NC1=O
< 4.52

What do you get for CC(C)(C)OC(=O)CC[C@@H]1N=C(c2ccccc2)c2ccccc2N(CCCCC(=O)NO)C1=O ?
5.34

Now this one: CC(C)(C)OC(=O)C[C@@H]1N=C(c2ccccc2)c2ccccc2N(CCCCC(=O)O)C1=O
< 4.52

* * *

// Histone deacetylase 1 (Homo sapiens, UniProt Q13547) IC50 records

NC(=O)CC[C@@H]1N=C(c2ccccc2)c2ccccc2N(CCCCC(=O)NO)C1=O = 13.9 µM

Quick one: IC50 of C[C@H](OCc1ccccc1)[C@@H]1N=C(c2ccccc2)c2ccccc2N(CCCCC(=O)O)C1=O ?
> 30 µM

Now this one: CC(C)(C)OC(=O)C[C@H]1N=C(c2ccccc2)c2ccccc2NC1=O
> 30 µM

Proceed to O=C1CN=C(c2ccccc2)c2ccccc2N1
> 30 µM

Try this compound too: CC(C)(C)OC[C@@H]1N=C(c2ccccc2)c2ccccc2NC1=O
> 30 µM

* * *

# target-of-assay: UniProt:Q9UBN7
# Sequence (Q9UBN7 whole entry): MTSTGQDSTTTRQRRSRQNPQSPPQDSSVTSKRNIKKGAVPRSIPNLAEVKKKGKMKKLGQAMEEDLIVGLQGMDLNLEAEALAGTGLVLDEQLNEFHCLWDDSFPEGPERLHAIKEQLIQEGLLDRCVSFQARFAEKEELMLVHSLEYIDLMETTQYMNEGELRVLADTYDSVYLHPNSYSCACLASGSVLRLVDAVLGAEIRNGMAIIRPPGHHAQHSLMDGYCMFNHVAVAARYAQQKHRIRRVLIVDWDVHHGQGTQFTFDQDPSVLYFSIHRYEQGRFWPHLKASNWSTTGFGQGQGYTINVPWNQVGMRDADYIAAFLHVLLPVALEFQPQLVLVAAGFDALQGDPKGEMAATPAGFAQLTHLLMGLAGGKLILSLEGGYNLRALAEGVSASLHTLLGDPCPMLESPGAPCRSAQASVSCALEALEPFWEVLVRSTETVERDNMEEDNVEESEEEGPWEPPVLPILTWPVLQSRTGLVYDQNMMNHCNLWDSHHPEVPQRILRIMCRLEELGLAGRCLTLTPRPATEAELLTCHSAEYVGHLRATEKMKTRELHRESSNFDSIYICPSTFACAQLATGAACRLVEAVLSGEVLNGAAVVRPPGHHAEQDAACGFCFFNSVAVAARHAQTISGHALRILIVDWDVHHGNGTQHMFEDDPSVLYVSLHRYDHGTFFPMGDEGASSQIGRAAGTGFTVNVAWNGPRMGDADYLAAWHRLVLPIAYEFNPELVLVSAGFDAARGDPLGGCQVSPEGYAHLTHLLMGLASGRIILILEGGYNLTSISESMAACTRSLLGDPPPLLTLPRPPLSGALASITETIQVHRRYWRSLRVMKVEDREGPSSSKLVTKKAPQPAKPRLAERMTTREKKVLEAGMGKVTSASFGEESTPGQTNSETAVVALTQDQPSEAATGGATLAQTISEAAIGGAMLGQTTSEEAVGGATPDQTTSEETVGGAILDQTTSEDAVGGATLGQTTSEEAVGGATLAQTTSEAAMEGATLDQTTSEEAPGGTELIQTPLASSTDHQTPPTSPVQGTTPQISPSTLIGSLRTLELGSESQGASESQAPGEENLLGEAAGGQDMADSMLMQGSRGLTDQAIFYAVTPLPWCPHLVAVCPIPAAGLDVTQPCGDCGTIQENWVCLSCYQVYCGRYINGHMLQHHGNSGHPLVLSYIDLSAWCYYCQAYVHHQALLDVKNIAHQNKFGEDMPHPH
# measurement-conditions: at 30 µM
# Description: Inhibition of human KDAC6 at 30 uM using FITC-labeled histone H4 acetylated peptide as substrate after 60 mins by fluorescence assay relative to control
Recorded inhibition by entry

Solved cases below.
COC(=O)CCCCN1C(=O)[C@H](C)N=C(c2ccccc2)c2ccccc21 = 8.84%
CC(C)C[C@@H]1N=C(c2ccccc2)c2ccccc2NC1=O = 5.48%
O=C1Nc2ccccc2C(c2ccccc2)=N[C@H]1Cc1cn(C(c2ccccc2)(c2ccccc2)c2ccccc2)cn1 = 12.3%
CC(C)(C)OC(=O)C[C@@H]1N=C(c2ccccc2)c2ccccc2N(CCCCC(=O)NO)C1=O = 80.6%

Okay, next one:
Entry O=C(O)CC[C@@H]1N=C(c2ccccc2)c2ccccc2NC1=O , system UniProt:Q9UBN7: what inhibition was measured?
0%

* * *

# target-of-assay: Histone deacetylase 1 (Homo sapiens)
# assay-procedure: Inhibition of human KDAC1 at 30 uM using substrate A after 60 mins by fluorescence assay relative to control
# inhibition >= 5% gives Y, anything below gives N

Some solved cases for reference:
CC(C)(C)OC(=O)CC[C@@H]1N=C(c2ccccc2)c2ccccc2N(CCCCC(=O)NO)C1=O = Y
O=C(C[C@@H]1N=C(c2ccccc2)c2ccccc2NC1=O)NO = Y

Confirm if inhibition reported for the compound CC(C)(C)OC(=O)C[C@@H]1N=C(c2ccccc2)c2ccccc2N(CCCCC(=O)O)C1=O is 5% or above.
N

Now consider COC(=O)CCCCN1C(=O)[C@H](Cc2ccc(OC(C)(C)C)cc2)N=C(c2ccccc2)c2ccccc21 and answer again.
Y

Now this one: COC(=O)CCCCN1C(=O)[C@@H](CSC(C)(C)C)N=C(c2ccccc2)c2ccccc21
N

// next record CC[C@H](C)[C@@H]1N=C(c2ccccc2)c2ccccc2N(CCCCC(=O)O)C1=O
N

How about this compound: O=C(O)C[C@@H]1N=C(c2ccccc2)c2ccccc2NC1=O
N

Same question, CC(C)(C)SC[C@H]1N=C(c2ccccc2)c2ccccc2N(CCCCC(=O)NO)C1=O this time
Y

Then what about the compound CC(C)(C)Oc1ccc(C[C@@H]2N=C(c3ccccc3)c3ccccc3N(CCCCC(=O)NO)C2=O)cc1 ?
Y

Now this one: N=C(N)NCCC[C@@H]1N=C(c2ccccc2)c2ccccc2N(CCCCC(=O)NO)C1=O
Y

Repeat with COC(=O)CCCCN1C(=O)[C@H](CCCNC(=N)NS(=O)(=O)c2c(C)c(C)c3c(c2C)CC(C)(C)O3)N=C(c2ccccc2)c2ccccc21
N

Field entry: C[C@H](OCc1ccccc1)[C@@H]1N=C(c2ccccc2)c2ccccc2N(CCCCC(=O)O)C1=O
N

For CC(C)(C)OC[C@@H]1N=C(c2ccccc2)c2ccccc2NC1=O then?
N

Moving on to CC(C)(C)OC(=O)C[C@H]1N=C(c2ccccc2)c2ccccc2NC1=O
N

Another compound: O=C(CCCCN1C(=O)[C@H](Cc2ccc(O)cc2)N=C(c2ccccc2)c2ccccc21)NO
Y

What about CC[C@H](C)[C@@H]1N=C(c2ccccc2)c2ccccc2NC1=O ?
Y

Lookup O=C(CCCCN1C(=O)[C@H](CO)N=C(c2ccccc2)c2ccccc21)NO
Y
